Target: mUSP18 (Mus musculus)
Construct: (46-368); His-tag (N); made in house
Sequence (Q9WTV6 46-368): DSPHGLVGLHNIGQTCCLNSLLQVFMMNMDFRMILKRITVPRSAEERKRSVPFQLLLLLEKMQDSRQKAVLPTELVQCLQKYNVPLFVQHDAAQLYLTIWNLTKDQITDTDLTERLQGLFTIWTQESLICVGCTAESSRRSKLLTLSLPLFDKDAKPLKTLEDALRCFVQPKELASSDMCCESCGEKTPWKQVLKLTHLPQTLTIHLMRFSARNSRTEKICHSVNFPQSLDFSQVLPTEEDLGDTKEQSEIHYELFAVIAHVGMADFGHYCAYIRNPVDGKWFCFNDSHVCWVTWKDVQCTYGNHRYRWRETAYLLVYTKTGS
Test: High-throughput screening, ISG15ct-RhoMP, single dose 1.25 µM
Assay type: biochemical, murine
Conditions: mUSP18 %inhibition; carboxylic acid (CA) with coupling reagents DIC/HOBT; read-out: %inh CA + DIC/HOBT
measurement_type: inhibition at 1.25 µM (%)

For O=C(O)c1cnn(-c2ccc(Br)cc2)c1 [CA303] , what is its reported inhibition at 1.25 µM?
14.7

Try the molecule O=C(O)CCc1cccnc1 [CA058]
-16.4

Try the molecule NS(=O)(=O)c1ccc(CCNS(=O)(=O)c2cccc(C(=O)O)c2)cc1 [CA283]
-9.16

Try the molecule O=C(O)c1sccc1-n1cccc1 [CA392]
56.5

Try the molecule O=C(O)c1ncn(-c2ccccc2)n1 [CA437]
0.58

Try the molecule Cc1noc(C)c1Cc1ccc(C(=O)O)o1 [CA179]
4.32

Try the molecule O=C(O)c1cn(CCc2ccccc2)nn1 [CA160]
10.4

Try the molecule CCc1ccc(C(=O)N2CCC(C(=O)O)CC2)o1 [CA376]
-8.39

[1] CN1CCC(C(=O)O)CC1 [CA087]
[2] O=C(O)c1ccc(-c2cnco2)cc1 [CA255]
Would you kindly point out which of 1 and 2 has the smaller inhibition at 1.25 µM figure? Reply with the label of the item you choose.
1

[a] O=C(O)c1cnn(-c2cccc(Br)c2)c1 [CA240]
[b] CC(=O)CCCC(=O)O [CA044]
For the two items a and b , which reports the higher inhibition at 1.25 µM value? Reply with the label of the item you choose.
a
(a: 6.83%, b: -7.52%)
